What pIC50 was measured for each of the following?
# assayed-target: NMDA receptor
# measurement-notes: Competitive radioligand binding at NMDA receptor ([3H] MK801), rat forebrain membranes
# test-settings: 0.2 nM [3H] MK801, reflects free base activity
pIC50: −log10 of the molar value.

Query: For COCCOCCOCCOCCOCCO[C@H]1CC[C@H]2[C@H]3Cc4ccc(O)cc4[C@@]2(CCN3C)C1 [Compound 10] , what is its reported pIC50?
Reply: < 5.00

Query: // next record COCCOCCN1CC[C@]23CCCC[C@H]2[C@H]1Cc1ccc(Nc2cncc(F)c2)cc13 [Compound 104]
Reply: < 5.00

Query: // next record CN1CC[C@]23CCCC[C@H]2[C@H]1Cc1ccc(NC(=O)OC(C)(C)C)cc13 [Compound 40]
Reply: 5.00 to 6.00

Query: // next record COc1ccc(NC(=O)Nc2ccc3c(c2)[C@@]24CCCC[C@H]2[C@@H](C3)N(C)CC4)cc1 [Compound 27]
Reply: 5.00 to 6.00

Query: // next record CN1CC[C@]23CCCC[C@H]2[C@H]1Cc1ccc(-c2ccoc2)cc13 [Compound 51, 3-(3-furyl)-17-methylmorphinan]
Reply: 5.00 to 6.00

Query: // next record Oc1ccc2c(c1)[C@@]13CCCC[C@H]1[C@@H](C2)N(C1COC1)CC3 [Compound 87, 17-(oxetan-3-yl)morphinan-3-ol]
Reply: < 5.00

Query: // next record CN1CC[C@]23CCCC[C@H]2[C@H]1Cc1cc2ccc(N)nc2cc13 [Compound 101]
Reply: 5.00 to 6.00
